Measured values drawn from patent US6887889B2 for this set.

target: hMCHR (Homo sapiens, UniProt Q99705); construct: host or cells: CHO (Chinese hamster ovary) cells, membranes; assay: MCH Assay PCOP Protocol: [125I]-MCH binding to hMCHR-CHO membranes, WGA-SPA beads; details: hMCHR-CHO overexpressing membranes, 0.5 nM [125I]-MCH, 2 hours incubation
Sequence (Q99705 whole entry): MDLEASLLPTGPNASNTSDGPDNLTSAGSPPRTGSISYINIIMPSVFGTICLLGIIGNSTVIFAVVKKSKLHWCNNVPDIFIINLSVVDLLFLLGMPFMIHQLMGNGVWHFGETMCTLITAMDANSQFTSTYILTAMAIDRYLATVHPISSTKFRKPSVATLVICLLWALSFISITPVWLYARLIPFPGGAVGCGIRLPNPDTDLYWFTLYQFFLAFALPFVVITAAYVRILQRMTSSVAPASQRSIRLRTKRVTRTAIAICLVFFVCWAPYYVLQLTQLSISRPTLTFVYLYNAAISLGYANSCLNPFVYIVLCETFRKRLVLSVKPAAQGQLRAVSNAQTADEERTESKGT
pKi: −log10 of the molar value.
Recorded metric: pKi

[[record]]
structure_notation = "CN(C)S(=O)(=O)N1CCC(CNC(=O)Nc2cc(Cl)cc(Cl)c2)(c2ccc(-c3cccc(C#N)c3)cc2)CC1"
measurement_target = "hMCHR (Homo sapiens, UniProt Q99705)"
measurement = "7.00 to 7.96"

[[record]]
structure_notation = "CN1CCC(CNC(=O)Nc2cc(Cl)cc(Cl)c2)(c2ccc(-c3cccc(N)c3)cc2)CC1"
measurement_target = "hMCHR (Homo sapiens, UniProt Q99705)"
measurement = "7.00 to 7.96"

[[record]]
structure_notation = "COCCN1CCC(CNC(=O)Nc2ccc(OC)c(Cl)c2)(c2ccc(-c3cccc(C#N)c3)cc2)CC1"
measurement_target = "hMCHR (Homo sapiens, UniProt Q99705)"
measurement = "7.00 to 7.96"

[[record]]
structure_notation = "O=C(NCC1(c2ccc(-c3cccc(Cl)c3)cc2)CCN(C2CCCCC2)CC1)Nc1cc(Cl)cc(Cl)c1"
measurement_target = "hMCHR (Homo sapiens, UniProt Q99705)"
measurement = "8.00 to 9.70"

[[record]]
structure_notation = "COCCN1CCC(CNCc2cc(Cl)cc(Cl)c2)(c2ccc(-c3cccc(NC(C)=O)c3)cc2)CC1"
measurement_target = "hMCHR (Homo sapiens, UniProt Q99705)"
measurement = "5.26 to 7.00"


Consider the compound `COCCN1CCC(CNC(=O)Nc2cc(F)cc(F)c2)(c2ccc(-c3cccc(C#N)c3)cc2)CC1` and give its measured pKi.
8.00 to 9.70

Now the compound `CCCN1CCC(CNC(=O)Nc2ccc(F)c(Cl)c2)(c2ccc(-c3cccc(C#N)c3)cc2)CC1`
8.00 to 9.70

====

target: hMCHR (Homo sapiens); construct: host or cells: CHO (Chinese hamster ovary) cells, membranes; experiment: MCH Assay PCOP Protocol: [125I]-MCH binding to hMCHR-CHO membranes, WGA-SPA beads; conditions: hMCHR-CHO overexpressing membranes, 0.5 nM [125I]-MCH, 2 hours incubation
pKi: −log10 of the molar value.
pKi for assorted compounds

Reference set, count: 4
[[record]]
compound = "O=C(NCC1(c2ccc(-c3cccc(Cl)c3)cc2)CCN(CC2CC2)CC1)Nc1cc(Cl)cc(Cl)c1 [Example 70]"
measurement = "8.00 to 9.70"

[[record]]
compound = "CC(C)N1CCC(CNC(=O)Nc2cc(Cl)cc(Cl)c2)(c2ccc(-c3ccc4c(c3)OCO4)cc2)CC1 [Example 82]"
measurement = "8.00 to 9.70"

[[record]]
compound = "N#Cc1cccc(-c2ccc(C3(CNC(=O)Nc4ccc(Cl)c(C(F)(F)F)c4)CCN(CC4CC4)CC3)cc2)c1 [Example 50]"
measurement = "8.00 to 9.70"

[[record]]
compound = "CN1CCC2(CC1)CN(C(=O)Nc1cc(Cl)cc(Cl)c1)c1ccc(-c3cccc(C#N)c3)cc12 [Example 37]"
measurement = "7.00 to 7.96"


Which pKi reading was recorded for the compound COCCN1CCC(CNC(=O)Nc2ccc3c(c2)OCO3)(c2ccc(-c3cccc(C#N)c3)cc2)CC1 [Example 92] ?
8.00 to 9.70

Moving on to the next compound: CN1CCC(C(=O)Nc2cc(Cl)cc(Cl)c2)(c2ccc(-c3cccc(C#N)c3)cc2)CC1 [Example 15]
5.26 to 7.00

And what about the compound O=C(NCC1(c2ccc(-c3cccc(Cl)c3)cc2)CCN(CC2CC2)CC1)Nc1cc(C(F)(F)F)ccc1Cl [Example 73] ?
5.26 to 7.00

Please give the result for CN1CCC(CNC(=O)Nc2ccc(Cl)cc2C(F)(F)F)(c2ccc(-c3cccc(C#N)c3)cc2)CC1 [Example 67] too.
5.26 to 7.00

Further, for O=C(Nc1cc(Cl)cc(Cl)c1)N1CCC(CNCC2CC2)(c2ccc(-c3cccc(Cl)c3)cc2)CC1 [Example 128] ?
5.26 to 7.00
